assay: protein stability index of a GFP-peptide fusion (GPS, HEK-293T) (PSI 1-6); higher = more stable; conditions: treatment: MLN4924 1 uM, 8 h; c terminus: a fixed tail appended;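 also: 24-mer peptide tiles fused after GFP, lentivirally expressed, FACS-sorted into six equal bins by GFP/DsRed ratio, decoded by Illumina sequencing, PSI is the read-weighted mean bin number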
assay metric: protein stability index
API doc: respond with a numeric literal and nothing else, no unit.

Find the recorded protein stability index belonging to VSQLYPESIVPIPSSNEEIRLVDD [INTS4] and report it.
4.88

Entry IMELTGGGQESSGLNLGKKISVPR [MYOZ1] : reported protein stability index = ?
3.83

Report protein stability index for VTPRTALLTWTEPPVRPAGYLLSF [TNXB] please.
2.2

Consider the sequence TFDNDYSLSELLSQLDSGVSQAVE [RIPK4] and give its measured protein stability index.
4.1

Reported protein stability index for KYAVPALEAHCVEFLTKHLRADNA [BTBD1] : what is it?
2.74

Query: protein stability index; subject: RTPSAFPQTPAAPPATLGEGSADT [EHMT1]
5.25

Need protein stability index, item ARLMRSNYPPPLSSAALRGAGPTR [C6orf223]
3.96

Give the measured protein stability index of RQLPPPPTPANEERRGGLPPLPLH [WAS] .
4.52

What value of measured protein stability index is listed for TQSVSECITEDGRTVAVGDIVWGK [PWWP2B] ?
4.25

Give the measured protein stability index of ETPMAPVPLGPLGETYCEEHGEKI [TRIM15] .
5.38

Quick one: protein stability index for GGAGKGRTPSAFPQTPAAPPATLG [EHMT1] ?
4.79

Sample WKNFDERKEMATILSKMPKPKPPP [CCNC] — what was its protein stability index?
3.64

// query protein stability index value for entry PHCSDLMPSGSEEKILRELSEEEE [KCNA4]
5.56

// returns reported protein stability index for input SVIKNYEDHFPLLFSEASECMLLV [MAGEA10]
2.33

# protein stability index lookup, item KIINTKKLSARDHQKLEREARICR [CAMK2B]
3.88

State the recorded protein stability index for this entry: REAVPALLGEPLAGPELDEMLREV [CABP4]
5.12

Please give the measured protein stability index for this sequence: SQEAGLPAGAGPSPTFPALGIGMD [SEPHS2]
4.65

May I ask what protein stability index has been recorded for ESSNDFGPYEGGGPVAGLDDSGGP [ZBTB22] ?
5

Form field: reported protein stability index of GVSANASKAWHQKSHFQNSREWSG [PBXIP1]
3.23

Give its protein stability index value. Item: ESDSRKVAEETPDGAPALCPSPEA [PRKX]
5.58

I have this sequence here, GRCIHAGCDRIIGSKKKFDKCMVC [ADAMTS4] , and I need its recorded protein stability index.
3.56

Given GQRDRKAEHWKHKKEESGRERKKN [PBXIP1] , state its recorded protein stability index.
5.4

Any idea what protein stability index was measured for HRILLLAISLTKCLESTKLLADLK [MIA2] ?
3.34

GET /values?readout=protein stability index&item= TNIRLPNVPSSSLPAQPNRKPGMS [CHMP4C]
4.51

What value of protein stability index has been recorded for this entry: MKCLKVGMLKEGVRLDRVRGGRQK [ESRRG]
3.73

Reported protein stability index, sequence RSYIKLFQAPCQRCGKFLQDGLPP [MED27] : ____
2

// returns reported protein stability index for input EILNFNQYYEACRKAAKSLIKLGL [ACSBG2]
2.92

Consider the sequence VRWLRPVHRQLGEANEEFALRVQQ [AUP1] and give its measured protein stability index.
3.02

Any idea what its protein stability index is? The sequence is ITMMALKVLGELNILPNTQKVTCF [TENT5D]
2.31

I'd like to know its protein stability index. The sequence in question is GRDRNLAPDEKRSNVRWDHESVCK [LUC7L3]
4.55

What does the record list as protein stability index for ELCVKLMFLHPVDYGRKAEELLWR [SMG5] ?
2.33

Please give the measured protein stability index for this sequence: YVTPSDFDQLKQFLTFDKQVLRFY [EFHC1]
2.28

Can you share its protein stability index? I mean this sequence: GEEALSLQALDPQQCVDKESSLGS [SLC22A15]
5.36

I would be grateful if you could share the reported protein stability index for EEQRVEQQTKLEAEKLKVQALKDR [LSM1] .
5.36

protein stability index lookup needed for LSSTLLSFSTAIGRTCITDLQLTV [MFSD9] , thanks.
3.18

Which protein stability index value belongs to GSLCSPWAAPRVGPLPPAPAMVRI [YPEL3] ?
3.07

# protein stability index lookup, item ALPDSVLRRFVVRTMCAVLGLVAR [AUP1]
2.32

Which protein stability index reading was recorded for the sequence NVSGLRFETQMKTLAQFPETLLGD [KCNA4] ?
3.86

# query: protein stability index of entry GYRTSAVASGLQFDVETRHVFIGD [WDFY2]
3.15

Look up protein stability index: MKDISNLEENDETRFILSKVPSEA [SLC6A17]
4.94

I'd like to know its protein stability index. The sequence in question is RAAYQQVIQPALPGQPLPGASVRG [TRAF3IP2]
4.18

Entry EKEELLQLSIERGKVLQNKQAEIC [CCDC89] : reported protein stability index = ?
4.68

Param item = MSFTTRSTFSTNYRSLGSVQAPSY [KRT18] ; retrieve measured protein stability index.
2.38

What does the record list as protein stability index for SINQRLNKRERSKLKNLRRKQRRR [RNF180] ?
3.93

Returns the measured protein stability index for the input sequence. Input: FDIQKIMQEKNPVHVIGVEEPSVG [ZNF8]
4

Param item = RGAQGVILVYDIANRWSFDGIDRW [RAB40B] ; retrieve measured protein stability index.
2.19

Requested field: protein stability index. Item: EPLAEGAAAEFSSLLRRIKGKLFT [SLC35F2]
2.65

Suppose we examine the sequence AKKAMGYQPLVTMDDAMERTVQSF [NSDHL] ; what protein stability index value has been reported?
3.46

I would be grateful if you could share the reported protein stability index for PGEWLELLLEPGSLYILRGSARYD [ALKBH7] .
3.08

Using the record for QFEPQLTLWDVFGANKEVQELLER [RSAD1] , report its protein stability index.
3.8

Would you mind telling me what protein stability index value was observed for SPQSGSILTEETEVKGTLEGDVCG [PBXIP1] ?
5.33

Reported protein stability index, sequence LQDGRRKVHYLFPDGKEMAEEYDE [DPCD] : ____
4.72

protein stability index lookup needed for VCLEYLKEPVIIECGHNFCKACIT [TRIM39] , thanks.
2.28

====

experiment: protein stability index of a GFP-peptide fusion (GPS, HEK-293T) (PSI 1-6); higher = more stable; settings: treatment: DMSO; c terminus: a fixed tail appended
assay metric: protein stability index
// return a plain number; no unit text

Any idea what its protein stability index is? The sequence is DFSMAEALNQEFLATRSNEKQELQ [PRPH]
5.05

Field request: protein stability index | item: LAFLDKIKSVKESLQESVEDSLAT [IQUB]
4.03

Query (sequence): MKQGGAALEGSALANGRALSAGSP [DLX1] ; field requested: protein stability index
4.67

Which measured protein stability index value corresponds to KTEAEIAHIALETLEGHQRAIMAH [FLOT1] ?
4.1

Given the sequence TRIEKRIVITGDADIDHDQALAQA [EPB41L3] , what is its reported protein stability index?
4.48

Bench note: what protein stability index did DPDEVARRWGKRKNKPKMNYEKLS [ETS1] show?
4.51

Reported protein stability index, sequence KTQICHTLAVTCQLPIDRGGGEGK [RAD51] : ____
3.81

Could you share which protein stability index value was measured for KECPFRVNKVCGAACSSKRSPIID [SERPINB5] ?
3.02

Sample NRNLQKFSLFGDISVLQQQGSLSN [FBXO33] — what was its protein stability index?
2.83

I have this sequence here, RIKIRQCIGLQNLKLLDELPIAKV [ASB7] , and I need its recorded protein stability index.
2.12

Endpoint output: protein stability index of SEREANDALNAYVCKGLPQHEEIC [INTS3] . Value?
4.56

# input sequence: RQLMKVVNEMCPNITRIYNIGKSH [CPXM2] ; wanted: its protein stability index
2.26

Requested read-out: protein stability index. Entry: DARDGQSRTVRQFQFTDWPEQGVP [PTPRD]
4.08

What value of protein stability index has been recorded for this entry: ASRLLTTALTSFCAKYTYPVCSAL [FANCE]
3.29

Record request: protein stability index value, item MATTVTCTRFTDEYQLYEDIGKGA [CAMK2B]
3.25

I would be grateful if you could share the reported protein stability index for SYKNLTLKFHKLVNVTIHFRLKTI [MCOLN1] .
3.21

Recorded protein stability index of KRKEEEALKDSLRPKLSEEQQRII [VDR] , please.
5.09

Tell me the measured protein stability index of PGPMGPPGPPGPTGVPGSPGHIGP [EMID1] , please.
4.82

Please give the measured protein stability index for this sequence: HGHNIGKKMSCQQFIANLDQLNDG [PSD2]
3.26

Can you look up the measured protein stability index of EAEADEEADPPASDLPTPQAIEPQ [SNX8] for me?
5.62

Entry DYVHISSKPCDLHCTTVDGQRQLM [ADAMTSL2] : reported protein stability index = ?
3.45

Reported protein stability index, sequence CCSRYLCMGAMSLFLPCLLCYPPA [SPRY1] : ____
2.82

Item RTMLDFPQHVSSDKEVRAASTEAD [NLN] has what recorded protein stability index?
5.55

Item YAMGITECDNMLMLLSVSQSMSEE [SEPHS2] has what recorded protein stability index?
2.16

Suppose we examine the sequence NEYRKLHPVLHKEEKQHLERLNKE [TRIM43] ; what protein stability index value has been reported?
4.9

Which protein stability index is reported for this sequence? PEPQVPGPAHGPAQEEPWEKKESL [ZNF232]
5.55

Can you share its protein stability index? I mean this sequence: DSGTCPEVDEEGFTVRPDVTQNST [FCHO1]
5.43

protein stability index for FLQRCLESPFSRKLDLWSFLDIPR [NET1] ?
2.45

Which protein stability index value is on record for IREKSRLFDTKHDVYSFAIVIWGV [RIPK4] ?
3.27

Look up protein stability index: TFEYTLLQPPHESRPQPIYYGFSE [ADAMTSL2]
2.47

Quick one: protein stability index of RNGQWSEPPKCLDPCVISQEIMEK [CFHR2] ?
4.24

Returns the measured protein stability index for the input sequence. Input: ADCVRGPDGVCLSGGRGPQGDKAI [PBXIP1]
4.52

Fill blank: measured protein stability index of the sequence PKEATVMCEQCDVFYCDPCRLRCH [TRIM9] is ____.
3.65

Which protein stability index is reported for this sequence? QNQPIDKARKTYERLVAQFPSSGR [CSTF3]
3.75

What does the data say about its protein stability index? Entry: EIDTQGRHLAHSMLQRAIAYQHSG [C10orf62]
2.91

Report protein stability index for MNLDIVDLLKKAKFHHSDCLSTWL [RHOBTB3] please.
2.53

Data request, read-out protein stability index, for ASKSKGAAVKLADFGLAIEVQGDQ [CAMK2D]
4.13

I have this sequence here, LSPEVLNKQGHGCESDIWALGCVM [PLK2] , and I need its recorded protein stability index.
2.09

# query: protein stability index of entry VVGALPAEHQFSFMEKRNQWLVSQ [TRAF3IP2]
2.36

Give its protein stability index value. Item: KKEDCLKLLLFLSTELQASQILQN [FAM98B]
3.41

Which measured protein stability index value corresponds to LPFVLAAAVSRKKKRRMGTYSLVP [EHMT1] ?
2.34

// query protein stability index value for entry GIRQITSDDFCTFQMVLEGGVCCT [GFOD1]
2.18

Please look up its protein stability index: SLQRWEHLKKVASRYQNNIKNDKY [PRIM1]
2.47

# input sequence: FHYIIEQGVCYLVLCEAAFPKKLA [SEC22B] ; wanted: its protein stability index
3.01

Entry KIFNDFKDRMKSDHKRETERVVRE [ZMYND11] has what protein stability index?
4.12

Bench note: what protein stability index did MARLQEEHGDQLLSIRCQHQEQVE [MTUS2] show?
4.85

Entry VHGDPAVWWVSQFVKYLIRPQPWL [FUT8] : reported protein stability index = ?
2.95

Recorded protein stability index for WIIKKHNTNSDPLDPSFPVEFVRH [POMT2] , please?
2.54

Suppose we examine the sequence RQLPPPPTPANEERRGGLPPLPLH [WAS] ; what protein stability index value has been reported?
4.53

What value of measured protein stability index is listed for RIDELIESGKEEGMKIDLIDGKGR [KMT5A] ?
4.96

For the sequence QIILENQKNFGLYVQEKRDGLKRR [RAD54B] , what protein stability index is on record?
2.41

Tell me the measured protein stability index of TPSSYAPSHPPRPLLPLDMQGNQI [ZBTB22] , please.
4.14

What value of protein stability index has been recorded for this entry: WTLRRTKELRKDYQGPGTRRLQEV [DYRK1B]
3.11
